System: small-conductance Ca2+-activated K+ channels (SK channels, isoform 2) (Rattus norvegicus, UniProt P70604)
Assay explanation: Whole-cell patch-clamp recording of SK channel current in stably transfected HEK293 cells
Measurement parameters: rat SK2 stably expressed in HEK293 cells, room temperature, IC50 = Koff/Kon from kinetics of the block, read-out: biological activity determined as IC50
pIC50: −log10 of the molar value.

# Smiles data, pIC50
measured = [
    ("CN1CCN(C)c2nc(c3ccccc3n2)NCC2CCCC(CNc3nc1nc1ccccc31)C2", "> 6.00"),
]
